Test system: Trypanosoma cruzi
Test: Trypanocidal activity against Trypanosoma cruzi CL Brener trypomastigote form in mouse blood at 250 ug/mL
Type: functional
Each entry below carries its recorded Activity.
propertyMeasured: Activity

>>> print(df.to_string())
                                  smilestext      subjectoftest  experimentalvalue
 0            COc1ccc2c(c1)[n+]([O-])c(C)n2O  Trypanosoma cruzi                23%
 1                  Cc1n(O)c2ccccc2[n+]1[O-]  Trypanosoma cruzi                 0%
 2       CC1(C)[N+]([O-])=c2ccccc2=[N+]1[O-]  Trypanosoma cruzi                10%
 3  CCOC(=O)c1[nH]c2ccc([N+](=O)[O-])cc2[n+]1[O-]  Trypanosoma cruzi                 0%
 4  CN(C)c1ccc(C(=C2C=CC(=[N+](C)C)C=C2)c2ccc(N(C)C)cc2)cc1.[Cl-]  Trypanosoma cruzi               100%
 5  CCOC(=O)c1ccc2[nH]c(C(=O)OCC)[n+]([O-])c2c1  Trypanosoma cruzi                50%
 6  COc1ccc2c(c1)=[N+]([O-])C(C)(C)[N+]=2[O-]  Trypanosoma cruzi                34%
 7             Cc1ccc2c(c1)[n+]([O-])c(C)n2O  Trypanosoma cruzi                 0%
 8  CCCCOC(=O)c1[nH]c2ccc([N+](=O)[O-])cc2[n+]1[O-]  Trypanosoma cruzi                 0%
 9  CC1(C)[N+]([O-])=c2ccc(C3OCCO3)cc2=[N+]1[O-]  Trypanosoma cruzi                28%
10  Cc1ccc2c(c1)=[N+]([O-])C(C)(C)[N+]=2[O-]  Trypanosoma cruzi                 0%
11  CC1(C)[N+]([O-])=c2ccc(/C=N/O)cc2=[N+]1[O-]  Trypanosoma cruzi                21%
